B1: RSPH3 (parent)
chain: VDVQTELYLEEIADRIIEVDMECQ

- Variants of: B1
- measurement_protocol: protein stability index of a GFP-peptide fusion (GPS, HEK-293T) (PSI 1-6); higher = more stable;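 also: lentivirally expressed fusions sorted by FACS into six bins by GFP to DsRed ratio, PSI derived from sequencing read proportions per bin multiplied by bin number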
- setup_conditions: c terminus: a fixed tail appended
Respond with true for protein stability index values of 3 and above, false for values below.

*Q* Identify whether the reported protein stability index of the following variant is 3 or greater: `C23L`
*A* true

*Q* Now this one: `I17S`
*A* true

*Q* Also `V1R` , if possible.
*A* false

*Q* Entry to check: `E11I`
*A* true

*Q* `E10W` , same question.
*A* true

*Q* Next record, please: `E11M`
*A* true

*Q* Next entry: `L7R`
*A* false

*Q* Ok, now `I16K`
*A* true

*Q* Now try `I17F` .
*A* false

*Q* Consider next the variant `V1G` in the same way.
*A* false

*Q* Similarly, `T5N` ?
*A* true

*Q* Query `I12G` next
*A* true

*Q* Continue with `V1I`
*A* false

*Q* Now consider `I16C` .
*A* false

*Q* Would you kindly repeat that for `L7F` ?
*A* false
